Entries and their IC50 values follow.
assayed.system: c-Kit kinase (Homo sapiens (Human), UniProt P10721)
Sequence (P10721 26-976): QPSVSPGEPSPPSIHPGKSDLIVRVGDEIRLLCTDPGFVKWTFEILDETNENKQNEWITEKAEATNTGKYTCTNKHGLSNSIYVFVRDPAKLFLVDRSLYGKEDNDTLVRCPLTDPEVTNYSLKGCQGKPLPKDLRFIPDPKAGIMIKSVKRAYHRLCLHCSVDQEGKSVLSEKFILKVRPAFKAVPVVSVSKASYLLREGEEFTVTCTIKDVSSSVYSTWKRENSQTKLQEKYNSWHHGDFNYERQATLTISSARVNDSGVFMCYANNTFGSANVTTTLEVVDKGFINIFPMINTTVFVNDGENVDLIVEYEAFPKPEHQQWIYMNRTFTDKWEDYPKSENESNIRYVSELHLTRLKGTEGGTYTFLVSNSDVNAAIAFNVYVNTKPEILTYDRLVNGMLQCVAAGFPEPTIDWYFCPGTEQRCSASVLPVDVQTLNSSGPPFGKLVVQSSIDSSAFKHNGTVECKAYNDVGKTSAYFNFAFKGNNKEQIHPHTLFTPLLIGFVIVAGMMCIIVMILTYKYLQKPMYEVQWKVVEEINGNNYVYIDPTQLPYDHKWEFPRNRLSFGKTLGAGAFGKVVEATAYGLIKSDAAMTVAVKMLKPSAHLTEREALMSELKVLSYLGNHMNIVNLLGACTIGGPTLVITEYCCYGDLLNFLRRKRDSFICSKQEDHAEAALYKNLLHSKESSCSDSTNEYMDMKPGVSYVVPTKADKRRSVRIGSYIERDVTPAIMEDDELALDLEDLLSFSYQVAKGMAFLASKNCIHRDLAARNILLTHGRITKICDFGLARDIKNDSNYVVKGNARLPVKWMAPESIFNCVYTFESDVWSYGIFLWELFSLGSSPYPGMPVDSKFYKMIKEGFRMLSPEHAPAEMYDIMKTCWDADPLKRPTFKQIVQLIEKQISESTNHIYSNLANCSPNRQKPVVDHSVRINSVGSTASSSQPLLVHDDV
assay.protocol: c-Kit biochemical assay (AlphaScreen kinase activity)
reported.metric: IC50

smiles.record | reading
CCOc1ccc(-c2[nH]c(C3(C)CCN(c4ncnc5[nH]c(-c6ccc(C#N)cc6)cc45)CC3)nc2C)cc1 | 0.0001 to 1 µM
COc1cc(-c2[nH]c(C3CCN(c4ncnc5[nH]c(-c6ccc(F)cc6)cc45)CC3)nc2C)ccc1C | 1 to 10 µM
COc1ccc(-c2[nH]c(C3(C)CCN(c4ncnc5[nH]c(-c6ccc(OCC(=O)O)cc6)cc45)CC3)nc2C)cc1C | 0.0001 to 1 µM
CCOc1ccc(-c2[nH]c(C3CCN(c4ncnc5[nH]c(-c6ccnc(OC)c6)cc45)CC3)nc2C)cc1 | 1 to 10 µM
CCOc1ccc(-c2[nH]c(C3CCN(c4ncnc5[nH]c(-c6ccc(C#N)cc6)cc45)CC3)nc2C)cc1C | 0.0001 to 1 µM
CCOc1ccc(-c2[nH]c(C3CCN(c4ncnc5[nH]c(-c6ccc(C#N)cc6)cc45)CC3)nc2C)cc1 | 1 to 10 µM
COc1ncc(-c2[nH]c(C3CCN(c4ncnc5[nH]c(-c6ccc(C#N)cc6)cc45)CC3)nc2C)cc1F | 0.0001 to 1 µM
Cc1nc(C2(C)CCN(c3ncnc4[nH]c(-c5ccc(C#N)cc5)cc34)CC2)[nH]c1-c1ccc(C(F)F)cc1 | 0.0001 to 1 µM
COc1cc(-c2[nH]c(C3CCN(c4ncnc5[nH]c(C)cc45)CC3)nc2C)ccc1C | 1 to 10 µM
Cc1nc(C2CCN(c3ncnc4[nH]c(-c5cccc(NS(C)(=O)=O)c5)cc34)CC2)[nH]c1-c1ccccc1 | 0.0001 to 1 µM
CCOc1ccc(-c2[nH]c(C3(C)CCN(c4ncnc5[nH]c(-c6ccc(C(=O)NC)nc6)cc45)CC3)nc2C)cc1 | 0.0001 to 1 µM
COc1cc(-c2cc3c(N4CCC(c5nc(C)c(-c6ccc7c(c6)OC(F)(F)O7)[nH]5)CC4)ncnc3[nH]2)ccn1 | 10 to 300 µM
CCOc1cccc(-c2[nH]c(C3CCN(c4ncnc5[nH]c(-c6ccc(C#N)cc6)cc45)CC3)nc2C)c1 | 1 to 10 µM
Cc1nc(C2CCN(c3ncnc4[nH]c(-c5ccnc(N6CCOCC6)c5)cc34)CC2)[nH]c1-c1ccccc1 | 0.0001 to 1 µM
Cc1nc(C2CCN(c3ncnc4[nH]c(-c5cccc(OC(F)(F)F)c5)cc34)CC2)[nH]c1-c1ccccc1 | 1 to 10 µM
COc1ccc(-c2[nH]c(C3(C)CCN(c4ncnc5[nH]c(-c6ccc(C(=O)O)cc6)cc45)CC3)nc2C)cc1F | 0.0001 to 1 µM
CCOc1ccc(-c2[nH]c(C3(C)CCN(c4ncnc5[nH]c(-c6ccc(C(N)=O)cc6)cc45)CC3)nc2C)cc1C | 0.0001 to 1 µM
COc1cccc(-c2[nH]c(C3CCN(c4ncnc5[nH]c(-c6ccnc(OC)c6)cc45)CC3)nc2C)c1 | 1 to 10 µM
COc1cccc(-c2[nH]c(C3(C)CCN(c4ncnc5[nH]c(-c6ccc(C#N)nc6)cc45)CC3)nc2C)c1 | 0.0001 to 1 µM
COc1cc(-c2cc3c(N4CCC(c5nc(C)c(-c6ccc(OC)c(OC)c6)[nH]5)CC4)ncnc3[nH]2)ccn1 | 1 to 10 µM
Cc1nc(C2CCN(c3ncnc4[nH]c(-c5ccc(F)cc5)cc34)CC2)[nH]c1-c1ccc(OC(C)C)cc1 | 0.0001 to 1 µM
CCOc1ccc(-c2[nH]c(C3(CC)CCN(c4ncnc5[nH]c(C)cc45)CC3)nc2C)cc1C | 1 to 10 µM
Fc1ccc(-c2cc3c(N4CCC(c5nnc(-c6ccc(F)cc6)[nH]5)CC4)ncnc3[nH]2)cc1 | 1 to 10 µM
COc1ccc(-c2[nH]c(C3CCN(c4ncnc5[nH]c(-c6ccc(C#N)cc6)cc45)CC3)nc2C)cc1C | 0.0001 to 1 µM
Cc1nc(C2CCN(c3ncnc4[nH]c(-c5cccc(F)c5)cc34)CC2)[nH]c1-c1ccccc1 | 0.0001 to 1 µM
COc1ccc(-c2[nH]c(C3CCN(c4ncnc5[nH]c(-c6ccc(F)cc6)cc45)CC3)nc2C)cc1OC | 1 to 10 µM
COc1ccc(-c2[nH]c(C3CCN(c4ncnc5[nH]c(-c6ccc(C#N)cc6)cc45)CC3)nc2C)cn1 | 0.0001 to 1 µM
COc1cc(-c2cc3c(N4CCC(C)(c5nc(C)c(-c6ccccc6)[nH]5)CC4)ncnc3[nH]2)ccn1 | 0.0001 to 1 µM
COc1cccc(-c2[nH]c(C3CCN(c4ncnc5[nH]c(-c6cnn(C(F)F)c6)cc45)CC3)nc2C)c1 | 0.0001 to 1 µM

====

assayed.system: c-Kit kinase (Homo sapiens (Human), UniProt P10721)
assay.protocol: c-Kit biochemical assay (AlphaScreen kinase activity)
Entries and their IC50 values follow.

smiles.record | assayed.system | IC50
Cc1nc(C2(C)CCN(c3ncnc4[nH]c(-c5cnn(C(F)F)c5)cc34)CC2)[nH]c1-c1ccc2c(c1)OCO2 | c-Kit kinase (Homo sapiens (Human), UniProt P10721) | 0.0001 to 1 µM
Cc1ccc(-c2[nH]c(C3CCN(c4ncnc5[nH]c(-c6ccc(C#N)cc6)cc45)CC3)nc2C)s1 | c-Kit kinase (Homo sapiens (Human), UniProt P10721) | 0.0001 to 1 µM
COc1ccc(-c2[nH]c(C3CCN(c4ncnc5[nH]c(-c6cnn(C(F)F)c6)cc45)CC3)nc2C)cc1 | c-Kit kinase (Homo sapiens (Human), UniProt P10721) | 0.0001 to 1 µM
COc1cc(-c2[nH]c(C3(C)CCN(c4ncnc5[nH]c(C)cc45)CC3)nc2C)ccc1C | c-Kit kinase (Homo sapiens (Human), UniProt P10721) | 1 to 10 µM
Cc1nc(C2CCN(c3ncnc4[nH]c(-c5ccc(F)cc5)cc34)CC2)[nH]c1-c1ccc(C(F)(F)F)cc1 | c-Kit kinase (Homo sapiens (Human), UniProt P10721) | 1 to 10 µM
CCOc1cccc(-c2[nH]c(C3CCN(c4ncnc5[nH]c(-c6ccc(F)cc6)cc45)CC3)nc2C)c1 | c-Kit kinase (Homo sapiens (Human), UniProt P10721) | 1 to 10 µM
Cc1nc(C2CCN(c3ncnc4[nH]c(-c5ccc(C#N)cc5)cc34)CC2)[nH]c1-c1ccc(OC(C)C)cc1 | c-Kit kinase (Homo sapiens (Human), UniProt P10721) | 0.0001 to 1 µM

====

assayed.system: c-kit mutant D816V (Homo sapiens (Human), UniProt P10721, D816V/DEL694-753)
Sequence (P10721 other isoform, or with tags, fused parts or gaps D816V/del 694-753): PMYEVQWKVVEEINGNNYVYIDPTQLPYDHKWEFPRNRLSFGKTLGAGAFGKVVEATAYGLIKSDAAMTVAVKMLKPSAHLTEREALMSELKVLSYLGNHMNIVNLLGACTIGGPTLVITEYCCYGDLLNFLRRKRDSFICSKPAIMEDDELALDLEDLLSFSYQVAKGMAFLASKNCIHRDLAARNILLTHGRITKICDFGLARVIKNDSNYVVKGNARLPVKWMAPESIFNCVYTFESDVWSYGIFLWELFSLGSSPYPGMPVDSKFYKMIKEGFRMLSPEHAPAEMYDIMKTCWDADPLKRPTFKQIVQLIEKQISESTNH
assay.protocol: c-Kit mutant D816V biochemical assay (AlphaScreen kinase activity)

smiles.record | IC50
COc1ccc(-c2[nH]c(C3(C)CCN(c4ncnc5[nH]c(-c6ccc(OC)nc6)cc45)CC3)nc2C)cc1 | 0.0001 to 1 µM
COc1ccc(-c2[nH]c(C3CCN(c4ncnc5[nH]c(-c6ccnc(OC)c6)cc45)CC3)nc2C(F)(F)F)cc1 | 0.0001 to 1 µM
Cc1nc(C2CCN(c3ncnc4[nH]c(-c5ccc(C#N)cc5)cc34)CC2)[nH]c1-c1ccc2c(c1)OCO2 | 0.0001 to 1 µM
CNC(=O)c1ccc(-c2cc3c(N4CCC(C)(c5nc(C)c(-c6ccc(OC)c(F)c6)[nH]5)CC4)ncnc3[nH]2)cn1 | 0.0001 to 1 µM
COc1cccc(-c2[nH]c(C3CCN(c4ncnc5[nH]c(-c6ccc(C#N)cc6)cc45)CC3)nc2C(F)(F)F)c1 | 0.0001 to 1 µM
COc1ccc(-c2[nH]c(C3CCN(c4ncnc5[nH]c(-c6ccc(C#N)cc6)cc45)CC3)nc2C)cc1F | 0.0001 to 1 µM
CNC(=O)c1cccc(-c2cc3c(N4CCC(c5nc(C)c(-c6ccccc6)[nH]5)CC4)ncnc3[nH]2)c1 | 0.0001 to 1 µM

====

assayed.system: c-Kit kinase (Homo sapiens (Human))
assay.protocol: c-Kit biochemical assay (AlphaScreen kinase activity)
Method: Assays for biochemical cell-based activity of c-kit kinase are known in the art, for example, as described in U.S. Pat. Nos. 7,498,342 and 7,846,941, the disclosures of which are hereby incorporated by reference as it relates to such assays. […] IC50 values are determined with respect to inhibition of c-Kit kinase activity, where inhibition of phosphorylation of a peptide substrate is measured as a function of compound concentration. […]
Entries and their IC50 values follow.

smiles.record | assayed.system | IC50
COc1ccc(-c2[nH]c(C3CCN(c4ncnc5[nH]c(-c6ccc(C#N)cc6)cc45)CC3)nc2C)cc1F | c-Kit kinase (Homo sapiens (Human)) | 1 to 10 µM
COc1ccc(-c2[nH]c(C3CCN(c4ncnc5[nH]c(-c6ccc(C#N)cc6)cc45)CC3)nc2C)cc1 | c-Kit kinase (Homo sapiens (Human)) | 0.0001 to 1 µM
CCOc1ccc(-c2[nH]c(C3(C)CCN(c4ncnc5[nH]c(-c6ccc(C#N)nc6)cc45)CC3)nc2C)cc1 | c-Kit kinase (Homo sapiens (Human)) | 0.0001 to 1 µM
COc1ccc(-c2[nH]c(C3CCN(c4ncnc5[nH]c(C)cc45)CC3)nc2C)cc1 | c-Kit kinase (Homo sapiens (Human)) | 1 to 10 µM
CCOc1ccc(-c2[nH]c(C3CCN(c4ncnc5[nH]c(C)cc45)CC3)nc2C)cc1C | c-Kit kinase (Homo sapiens (Human)) | 1 to 10 µM
COc1cc(-c2cc3c(N4CCC(c5nc(C)c(-c6ccc7c(c6)OCO7)[nH]5)CC4)ncnc3[nH]2)ccn1 | c-Kit kinase (Homo sapiens (Human)) | 0.0001 to 1 µM
Cc1nc(C2(C)CCN(c3ncnc4[nH]c(-c5ccc(F)cc5)cc34)CC2)[nH]c1-c1ccc(Cl)cc1 | c-Kit kinase (Homo sapiens (Human)) | 0.0001 to 1 µM
